Tested on: Staphylococcus epidermidis
This section presents molecules with their documented MIC values.
metric: MIC (µM)

- CC[C@H](C)[C@H](NC(=O)[C@H](CCCCN)NC(=O)[C@H](CO)NC(=O)[C@H](Cc1ccccc1)NC(=O)[C@H](CO)NC(=O)[C@H](CCCCN)NC(=O)[C@H](CCC(=O)O)NC(=O)[C@H](CC(C)C)NC(=O)[C@H](CCCN=C(N)N)NC(=O)[C@H](CCCCN)NC(=O)[C@H](Cc1ccccc1)NC(=O)[C@@H](NC(=O)[C@H](CCCCN)NC(=O)[C@H](CCCCN)NC(=O)[C@H](C)N)C(C)C)C(=O)N[C@@H](CCC(N)=O)C(=O)N[C@@H](CC(N)=O)C(=O)N[C@@H](CC(=O)O)C(=O)N[C@@H](CCCCN)C(N)=O [AKKVFKRLEKSFSKIQNDK]: 12.5
- CC(C)C[C@H](NC(=O)[C@H](Cc1ccccc1)NC(=O)[C@H](CCCCN)NC(=O)[C@H](Cc1c[nH]c2ccccc12)NC(=O)[C@H](Cc1c[nH]c2ccccc12)NC(=O)[C@H](CCCN=C(N)N)NC(=O)[C@H](CCCCN)NC(=O)[C@H](CC(C)C)NC(=O)[C@@H](N)CCCN=C(N)N)C(=O)O [RLKRWWKFL]: 1.2
- CC[C@H](C)[C@H](NC(=O)[C@H](CCCCN)NC(=O)[C@H](CO)NC(=O)[C@H](Cc1ccccc1)NC(=O)[C@H](CC(C)C)NC(=O)[C@H](CCCCN)NC(=O)[C@H](CCC(=O)O)NC(=O)[C@H](CC(C)C)NC(=O)[C@H](CCCN=C(N)N)NC(=O)[C@H](CCCCN)NC(=O)[C@H](Cc1ccccc1)NC(=O)[C@@H](NC(=O)[C@H](CCCCN)NC(=O)[C@H](CCCCN)NC(=O)[C@H](C)N)C(C)C)C(=O)N[C@@H](CCC(N)=O)C(=O)N[C@@H](CC(N)=O)C(=O)N[C@@H](CC(=O)O)C(=O)N[C@@H](CCCCN)C(N)=O [AKKVFKRLEKLFSKIQNDK]: 6.25
- CC(C)C[C@H](NC(=O)[C@H](CCCCN)NC(=O)CNC(=O)[C@H](CCCCN)NC(=O)[C@H](CC(C)C)NC(=O)[C@H](CCCCN)NC(=O)[C@H](CC(C)C)NC(=O)[C@H](CCCCN)NC(=O)[C@H](C)NC(=O)CNC(=O)[C@H](CC(C)C)NC(=O)[C@H](CCCCN)NC(=O)[C@H](CC(C)C)NC(=O)[C@H](CCCCN)NC(=O)[C@H](C)NC(=O)[C@H](CC(C)C)NC(=O)[C@H](CCCCN)NC(=O)[C@H](CCCCN)NC(=O)[C@@H](N)CCCCN)C(=O)NCC(=O)N[C@@H](C)C(N)=O [KKKLAKLKLGAKLKLKGKLGA]: 6.25
- CC[C@H](C)[C@H](NC(=O)CN)C(=O)N[C@@H](CC(C)C)C(=O)N[C@@H](CO)C(=O)N[C@@H](CO)C(=O)N[C@@H](CC(C)C)C(=O)N[C@@H](Cc1c[nH]c2ccccc12)C(=O)N[C@@H](CCCCN)C(=O)N[C@@H](CCCCN)C(=O)N[C@@H](CC(C)C)C(=O)N[C@@H](CCCCN)C(=O)N[C@@H](CCCCN)C(=O)N[C@H](C(=O)N[C@H](C(=O)N[C@@H](C)C(=O)N[C@@H](CCCCN)C(N)=O)[C@@H](C)CC)[C@@H](C)CC [GILSSLWKKLKKIIAK]: 2
- CC(C)[C@H](NC(=O)CNC(=O)[C@@H](N)Cc1cnc[nH]1)C(=O)N[C@@H](CO)C(=O)NCC(=O)N[C@@H](Cc1cnc[nH]1)C(=O)NCC(=O)N[C@@H](CCC(N)=O)C(=O)N[C@@H](Cc1cnc[nH]1)C(=O)NCC(=O)N[C@H](C(=O)N[C@@H](Cc1cnc[nH]1)C(=O)NCC(=O)O)[C@@H](C)O [HGVSGHGQHGTHG]: 12.6
